- testedSystem: T1, Recombinant Human DLL4 (delta-like protein 4) (human, UniProt Q9NR61 27-524)
- T1 construct: also called rHuman DLL4
- assayExplanation: ELISA, plate-coated DLL4, Fab 100 nM
Give measured ELISA signal at 100 nM Fab for each item. Keep answers brief.
Just the number, please, no unit after it.

Enquiry: Give ELISA signal at 100 nM Fab for the following binder: Fab VH1-46_IGHD6-6*01_IGHJ1*01 S102A/S103P/S104F/H111F (APFF) & L6_IGKJ1*01 S28N/S30D/S31H (NDH) (Fab, V domains shown, Fab made in E. coli: VH in plasmid A (CH1, His6 and Flag tags), VL in plasmid C (kappa CL); also called H:APFF & L:NDH; APFF / NDH) VH: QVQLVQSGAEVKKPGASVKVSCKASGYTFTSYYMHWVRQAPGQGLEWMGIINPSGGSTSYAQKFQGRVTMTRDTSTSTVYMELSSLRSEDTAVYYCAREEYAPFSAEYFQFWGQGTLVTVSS VL: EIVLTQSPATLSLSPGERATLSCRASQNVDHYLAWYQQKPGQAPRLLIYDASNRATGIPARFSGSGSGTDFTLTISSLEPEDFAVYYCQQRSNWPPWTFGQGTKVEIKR
Return: 0.686

Enquiry: Give ELISA signal at 100 nM Fab for the following binder: Fab VH1-46_IGHD6-6*01_IGHJ1*01 S102A/S103P/S104F/H111F (APFF) & L6_IGKJ1*01 S28N/S30D/S31H A55S (Fab, V domains shown, Fab made in E. coli: VH in plasmid A (CH1, His6 and Flag tags), VL in plasmid C (kappa CL); also called H:APFF & L:NDH A55S; APFF / NDH/A55S) VH: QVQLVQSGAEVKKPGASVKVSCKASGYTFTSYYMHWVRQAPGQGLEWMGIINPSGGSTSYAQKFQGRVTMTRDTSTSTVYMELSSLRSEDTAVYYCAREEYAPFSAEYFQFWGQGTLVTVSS VL: EIVLTQSPATLSLSPGERATLSCRASQNVDHYLAWYQQKPGQAPRLLIYDASNRSTGIPARFSGSGSGTDFTLTISSLEPEDFAVYYCQQRSNWPPWTFGQGTKVEIKR
Return: 0.858

Enquiry: Give ELISA signal at 100 nM Fab for the following binder: Fab VH1-46_IGHD6-6*01_IGHJ1*01 S102A/S103P/S104F/H111F (APFF) & L6_IGKJ1*01 S28N/S30D/S31H S52L (Fab, V domains shown, Fab made in E. coli: VH in plasmid A (CH1, His6 and Flag tags), VL in plasmid C (kappa CL); also called H:APFF & L:NDH S52L; APFF / NDH/S52L) VH: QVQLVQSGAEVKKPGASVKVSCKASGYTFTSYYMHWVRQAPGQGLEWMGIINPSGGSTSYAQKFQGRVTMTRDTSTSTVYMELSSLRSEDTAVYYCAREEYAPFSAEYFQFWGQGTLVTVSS VL: EIVLTQSPATLSLSPGERATLSCRASQNVDHYLAWYQQKPGQAPRLLIYDALNRATGIPARFSGSGSGTDFTLTISSLEPEDFAVYYCQQRSNWPPWTFGQGTKVEIKR
Return: 0.791
